Molecular target: T1, hOX40-muFc (human; mouse, UniProt P43489 29-216)
T1 construct: range 1-216; Expressed in HEK293, purified on Protein A; also called recombinant human OX40; not shown: mouse IgG1-Fc (muFc) domain, residue 98 to residue 324 of P01868
T1 sequence (looked up): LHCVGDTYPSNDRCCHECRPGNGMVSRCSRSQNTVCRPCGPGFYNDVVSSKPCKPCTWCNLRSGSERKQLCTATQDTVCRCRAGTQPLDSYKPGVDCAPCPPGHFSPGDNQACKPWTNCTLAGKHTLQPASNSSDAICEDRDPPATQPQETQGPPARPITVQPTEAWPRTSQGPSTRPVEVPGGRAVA
Assay: ELISA, hOX40-muFc coated at 2 µg/ml, goat anti-human IgG-HRP; column C of the drawn 4-P fit table y=(A-D)/(1+(x/C)^B)+D; the axis prints no unit, ng/ml is from paragraph 210
assayEndpoint: EC50

Here are 3 binders together with their reported answers.
O21 mAb (antibody, IgG4, V domains shown, also called 021 mAb; anti-OX40 21# mAb; not shown: human immunoglobulin gamma4 (IgG4) constant region, P01861; human immunoglobulin kappa light chain constant region, P01834) VH: QVQLQQSGPGLVKPSQTLSLTCAISGDSVSSNSVSWDWIRQSPSRGLEWLGRTYYRSKWYNEYAVSVESRITINPDTSKNQFSLQLNSVTPEDTAIYFCVRNNYFFDLWGRGTLVTVSS VL: EIVLTQSPATLSLSPGERATLSCRASQSVSSYLAWYQQKPGQAPRLLIYDASDRATGIPARFSGSGSGTDFTLTISSLEPEDFAVYYCQLRSNWPPGYTFGQGTKVEIK; 0.0139 µg/mL
O3 scFv (scFv, Purified as scFv fused with human IgG1-Fc, expressed in HEK293; also called anti-hOX40 scFv O3; not shown: human IgG1-Fc (hFc) domain, residues 104-330 of P01857) scFv: QVQLQQWGAGLLKPSETLSLTCGFNGEYFTDYFWTWVRQPPGEALEWLALIYWDDDERYSPSLKNRLIITKDISKNQVVLTMTHMEPADTGTYYCARWGGSLMNAFDVWGPGTMVTVSSGGGGSGGGGSGGGGSQSALIQPASVSGSPGQSITISCTGTSSDVGGYNYVSWYQRHPGKAPRLMIYDVTKRPSGVSNRFSGSKSGNTASLTISGLQAEDEADYYCSSYTSSSIAVFGGGTQLTVL; 0.309 µg/mL
O21 scFv (scFv, Purified as scFv fused with human IgG1-Fc; also called anti-OX40 21# scFv; not shown: human IgG1-Fc (hFc) domain, residues 104-330 of P01857) scFv: QVQLQQSGPGLVKPSQTLSLTCAISGDSVSSNSVSWDWIRQSPSRGLEWLGRTYYRSKWYNEYAVSVESRITINPDTSKNQFSLQLNSVTPEDTAIYFCVRNNYFFDLWGRGTLVTVSSGGGGSGGGGSGGGGSEIVLTQSPATLSLSPGERATLSCRASQSVSSYLAWYQQKPGQAPRLLIYDASDRATGIPARFSGSGSGTDFTLTISSLEPEDFAVYYCQLRSNWPPGYTFGQGTKVEIK; 0.00949 µg/mL

Recorded EC50 (binder O3 mAb (antibody, IgG4, V domains shown, IgG4, lambda; expressed in HEK293; also called 03 mAb; not shown: human immunoglobulin gamma4 (IgG4) constant region, P01861; human immunoglobulin lambda light chain constant region, A0M8Q6) VH: QVQLQQWGAGLLKPSETLSLTCGFNGEYFTDYFWTWVRQPPGEALEWLALIYWDDDERYSPSLKNRLIITKDISKNQVVLTMTHMEPADTGTYYCARWGGSLMNAFDVWGPGTMVTVSS VL: QSALIQPASVSGSPGQSITISCTGTSSDVGGYNYVSWYQRHPGKAPRLMIYDVTKRPSGVSNRFSGSKSGNTASLTISGLQAEDEADYYCSSYTSSSIAVFGGGTQLTVL ): 0.0139 µg/mL

Recorded values, source patent US20180339059A1.
